target.or.test.system: tetanus toxin C fragment (TTC) (Clostridium tetani)
Sequence (P04958 865-1315 limits assumed): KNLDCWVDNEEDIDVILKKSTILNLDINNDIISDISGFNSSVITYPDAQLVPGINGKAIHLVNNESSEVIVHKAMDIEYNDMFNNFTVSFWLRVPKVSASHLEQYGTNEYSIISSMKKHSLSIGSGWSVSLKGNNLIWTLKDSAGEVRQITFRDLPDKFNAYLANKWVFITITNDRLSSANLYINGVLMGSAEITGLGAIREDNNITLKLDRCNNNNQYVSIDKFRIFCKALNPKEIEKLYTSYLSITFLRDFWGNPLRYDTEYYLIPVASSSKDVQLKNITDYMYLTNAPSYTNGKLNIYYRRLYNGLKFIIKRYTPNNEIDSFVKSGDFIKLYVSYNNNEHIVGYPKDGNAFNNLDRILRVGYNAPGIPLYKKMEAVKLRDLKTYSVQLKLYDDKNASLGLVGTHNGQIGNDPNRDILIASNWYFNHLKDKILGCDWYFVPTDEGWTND
procedure.text: biochemical
Assay type: binding
Entries and their Kd values follow.

State Kd (tetanus toxin C fragment (TTC) (Clostridium tetani)) of O=C(O)c1cc(O)c2c(c1)C(=O)c1cccc(O)c1C2=O . 33.6 µM

State Kd (tetanus toxin C fragment (TTC) (Clostridium tetani)) of COc1cccc2c1C(=O)c1c(O)c3c(c(O)c1C2=O)C[C@@](O)(C(=O)CO)C[C@@H]3O[C@H]1C[C@H](N)[C@H](O)[C@H](C)O1 . 4.1 µM
